Molecular target: recombinant human DPP-1 (Cathepsin C) (Homo sapiens)
Test: DPP-1 Inhibition Assay (In Vitro)
Details: fluorogenic substrate GR-AMC 10 uM, 0.15 nM DPP-1, pH 7.0, room temperature; average value where tested multiple times
Counter-ions that a name gives are not always drawn.
// values below are reported IC50

Some compounds with known IC50 results, for comparison:
CN(C)C(=O)c1ccc2nc(N3CCN(C(=O)[C@@H](N)Cc4cccs4)CC3)sc2c1 [Compound 27] :: 2200 nM
N[C@@H](Cc1cccs1)C(=O)N1CCN(c2nc3ccc(-c4ccc(F)c(F)c4)cc3s2)CC1 [Compound 11] :: 970 nM
C#CC[C@H](N)C(=O)NCCNc1nc2ccccc2o1 [Compound 44, hydrochloride] :: 3100 nM

Kindly review the next compound as well.
What does the record list as IC50 for COc1ccc(NC(=O)c2ccc3nc(NCCN(C)C(=O)[C@@H](N)Cc4cccs4)sc3c2)cc1OC [Compound 48] ?
200 nM

====

// values below are reported log10 of IC50
Molecular target: recombinant human DPP-1 (Cathepsin C) (Homo sapiens)
Test: DPP-1 Inhibition Assay (In Vitro)
Settings: fluorogenic substrate GR-AMC 10 uM, 0.15 nM DPP-1, pH 7.0, room temperature; average value where tested multiple times
Log10 applied to IC50; unit prior to transform: µM.

Some molecules with known log10 of IC50 results, for comparison:
N[C@@H](Cc1cccs1)C(=O)N1CCN(c2nc3ccc(C(=O)Nc4ccc(F)cc4)cc3s2)CC1 :: -0.25
N[C@@H](Cc1cccs1)C(=O)NCCNc1nc2ccccc2o1 :: -0.15
COc1cccc(CNC(=O)c2ccc3nc(N4CCN(C(=O)[C@@H](N)Cc5cccs5)CC4)sc3c2)c1 :: 0.08
N[C@@H](Cc1cccs1)C(=O)N1CCN(c2nc3ccc(-c4ccc(O)cc4)cc3s2)CC1 :: -0.66

What does the record list as log10 of IC50 for `N[C@@H](Cc1cccs1)C(=O)N1CCN(c2nc3ccc(C(=O)NC4CCCCC4)cc3s2)CC1` ?
0.36

What does the record list as log10 of IC50 for `N[C@@H](Cc1cccs1)C(=O)N1CCN(c2nc3ccc(Br)cc3s2)CC1` ?
0.11

What does the record list as log10 of IC50 for `N[C@@H](Cc1cccs1)C(=O)N1CCN(c2nc3ccc(C(=O)NC4CCCC4)cc3s2)CC1` ?
-0.06

What does the record list as log10 of IC50 for `COc1ccc(NC(=O)c2ccc3nc(N4CCN(C(=O)[C@@H](N)Cc5ccsc5)CC4)sc3c2)cc1OC` ?
0.75

====

Biological target: recombinant human DPP-1 (Cathepsin C) (Homo sapiens, UniProt P53634)
Sequence (P53634 25-463): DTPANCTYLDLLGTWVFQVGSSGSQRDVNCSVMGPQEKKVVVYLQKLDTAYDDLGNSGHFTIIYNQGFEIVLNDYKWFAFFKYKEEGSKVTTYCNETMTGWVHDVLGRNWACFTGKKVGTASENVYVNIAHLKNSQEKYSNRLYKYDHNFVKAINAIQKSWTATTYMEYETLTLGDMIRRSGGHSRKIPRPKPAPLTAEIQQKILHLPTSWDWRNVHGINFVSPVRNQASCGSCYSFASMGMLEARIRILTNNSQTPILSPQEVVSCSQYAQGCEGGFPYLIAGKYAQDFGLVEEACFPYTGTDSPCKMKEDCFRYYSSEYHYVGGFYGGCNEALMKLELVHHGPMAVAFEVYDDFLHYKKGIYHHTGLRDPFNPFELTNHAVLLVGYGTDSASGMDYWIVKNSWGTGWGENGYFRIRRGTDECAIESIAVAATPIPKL
Assay: DPP-1 Inhibition Assay (In Vitro)
Details: fluorogenic substrate GR-AMC 10 uM, 0.15 nM DPP-1, pH 7.0, room temperature; average value where tested multiple times
pIC50: −log10 of the molar value. Structures can show the parent of a compound that is named as a salt.
Lab note: compare pIC50 against 6. Equal or greater, write 1. Smaller, write 0.

Field: example entries. Status: answers known.
CC[C@H](N)C(=O)N1CCN(c2nc3ccc(C(=O)Nc4ccc(OC)c(OC)c4)cc3s2)CC1 [Compound 4, hydrochloride] :: 0
N[C@@H](Cc1cccs1)C(=O)N1CCN(c2nc3ccc(CNC4CCCC4)cc3s2)CC1 :: 1
N[C@@H](Cc1cccs1)C(=O)N1CCN(c2nc3ccc(C(=O)O)cc3s2)CC1 :: 0

Given the entry `N[C@@H](Cc1cccs1)C(=O)N1CCN(c2nc3ccc(-c4cccnc4)cc3s2)CC1` , answer whether its pIC50 meets or surpasses 6.
1
